Tested on: 935938-334-R-J1-PDC complex spheroid viability
Procedure Text: Anticancer human tumor 935938-334-R-J1-PDC patient-derived small intestine adenocarcinoma cell line growth inhibition [POLQ]
Condition Notes: second compound 1 µM; first compound 0.316 µM; hits give low values
Readout Kind: viability, T/C (%)
Answers are plain numbers, in %.

# example entries with known answers
[[record]]
compound = "CC1COCCN1c1cc(-c2ccnn2C)c2ccnc(-c3ccn[nH]3)c2n1 (stereo not given) + Nc1ccc(C#CCN(C(=O)Cc2ncc(C(F)(F)F)cc2C(F)(F)F)c2ccc(F)cc2)nn1"
readout_kind = "viability, T/C"
observed_value = 20.2

[[record]]
compound = "C=CCn1c(=O)c2cnc(Nc3ccc(N4CCN(C)CC4)cc3)nc2n1-c1cccc(C(C)(C)O)n1 + COC1C(OC(N)=O)C(O)C(Oc2ccc3c(O)c(NC(=O)c4ccc(O)c(CC=C(C)C)c4)c(=O)oc3c2C)OC1(C)C"
readout_kind = "viability, T/C"
observed_value = 74.8

[[record]]
compound = "COc1cccc(OCCCN)c1-c1cc(Nc2cnc(C#N)cn2)n[nH]1 + Cc1cccc(N(C)C(=O)C2C(O)CCN2c2nc(C)cc(C(F)(F)F)c2C#N)c1"
readout_kind = "viability, T/C"
observed_value = 9.11

[[record]]
compound = "CCc1cc2c(N3CCc4c(cc(Cn5ccnc5)cc4-c4cn(C)nc4C(F)(F)F)C3=O)ccnc2c(OC)n1 + Cc1cccc(N(C)C(=O)C2C(O)CCN2c2nc(C)cc(C(F)(F)F)c2C#N)c1"
readout_kind = "viability, T/C"
observed_value = 58.3


Summary for this compound, CC(C)n1c(=O)n(C)c2cnc3cc(F)c(-c4ccc(OCCCN5CCCCC5)nc4)cc3c21 + Nc1ccc(C#CCN(C(=O)Cc2ncc(C(F)(F)F)cc2C(F)(F)F)c2ccc(F)cc2)nn1 : viability, T/C is 102

====

Test system: 935938-334-R-J1-PDC complex spheroid viability
Procedure Text: Anticancer human tumor 935938-334-R-J1-PDC cell line growth inhibition [POLQ];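 further: spheroids exposed to drugs for seven days before viability read; 100% = DMSO vehicle control wells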
Condition Notes: second compound 10 µM; first compound 10 µM; hits give low values
Record form. Attribute: viability, T/C. Fill in for each entry.

# example entries with known answers
[[record]]
molecule = "COc1ccc([C@@H](O)c2cc(-c3ncnc4cc(N5CCOCC5)ccc34)c(F)cc2Cl)nn1 + Cc1cccc(N(C)C(=O)C2C(O)CCN2c2nc(C)cc(C(F)(F)F)c2C#N)c1"
readout_kind = "viability, T/C"
observed_value = "28.4%"

[[record]]
molecule = "COc1cc2cc(C(=O)CCC(=O)O)sc2cc1OC + COC1C(OC(N)=O)C(O)C(Oc2ccc3c(O)c(NC(=O)c4ccc(O)c(CC=C(C)C)c4)c(=O)oc3c2C)OC1(C)C"
readout_kind = "viability, T/C"
observed_value = "109%"

[[record]]
molecule = "C=CC(=O)N1CCN(c2nc(=O)n(-c3c(C)ccnc3C(C)C)c3nc(-c4c(O)cccc4F)c(F)cc23)C(C)C1 (stereo not given) + Nc1ccc(C#CCN(C(=O)Cc2ncc(C(F)(F)F)cc2C(F)(F)F)c2ccc(F)cc2)nn1"
readout_kind = "viability, T/C"
observed_value = "138%"

[[record]]
molecule = "CNCc1ccc(-c2[nH]c3cc(F)cc4c3c2CCNC4=O)cc1 + COC1C(OC(N)=O)C(O)C(Oc2ccc3c(O)c(NC(=O)c4ccc(O)c(CC=C(C)C)c4)c(=O)oc3c2C)OC1(C)C"
readout_kind = "viability, T/C"
observed_value = "88.7%"


Summary for this molecule, COc1cc(C2c3cc4c(cc3C(OC3OC5COC(C)OC5C(O)C3O)C3COC(=O)C23)OCO4)cc(OC)c1O (stereo not given) + COC1C(OC(N)=O)C(O)C(Oc2ccc3c(O)c(NC(=O)c4ccc(O)c(CC=C(C)C)c4)c(=O)oc3c2C)OC1(C)C : viability, T/C is 35.5%
